Target: human AspH (His6-AspH315–758) (Homo sapiens)
Construct: N-Terminally His6-tagged human AspH315–758 (His6-AspH315–758) was produced in Escherichia coli BL21 (DE3) cells; made in house; host or cells: Escherichia coli BL21 (DE3), pET-28a(+) vector
Assay: SPE-MS AspH inhibition assay (hFX-CP101-119 substrate hydroxylation)
Assay type: biochemical
Conditions: AspH-inhibitor screening, Plate 1-duplicate
Assign Plate 1-duplicate (% inhibition) to each entry below.
Quick note: give the figure in %, leave out the unit.

I'd like to know its Plate 1-duplicate (% inhibition). The molecule in question is `O=C(Nc1ccncc1)C(=O)c1cn(Cc2ccc(Cl)cc2)c2ccccc12`
2.65

Request the reported Plate 1-duplicate (% inhibition) associated with `CNC(=O)c1ccccc1Sc1ccc2c(/C=C/c3ccccn3)n[nH]c2c1`
-0.34

# query: Plate 1-duplicate (% inhibition) of entry `COc1c2occc2cc2ccc(=O)oc12`
1.60

What value of Plate 1-duplicate (% inhibition) has been recorded for this entry: CC[C@H](Nc1ncnc2[nH]cnc12)c1nc2cccc(F)c2c(=O)n1-c1ccccc1 [Idelalisib]
7.71

Please report the recorded Plate 1-duplicate (% inhibition) for `O=[N+]([O-])c1ccc2c(c1)S(=O)(=O)C=C2` .
9.59

Please look up its Plate 1-duplicate (% inhibition): `COC(=O)c1ccc2c(c1)NC(=O)/C2=C(\Nc1ccc(N(C)C(=O)CN2CCN(C)CC2)cc1)c1ccccc1`
-2.41

Recorded Plate 1-duplicate (% inhibition) of `CC(=O)Oc1ccccc1C(=O)O` , please.
6.00

GET /values?readout=Plate 1-duplicate (% inhibition)&item= `CCCC(CCC)C(=O)O`
5.73

I would be grateful if you could share the reported Plate 1-duplicate (% inhibition) for C[C@]12CC[C@@H]3c4ccc(O)cc4C[C@@H](CCCCCCCCC[S+]([O-])CCCC(F)(F)C(F)(F)F)[C@H]3[C@@H]1CC[C@@H]2O (some centres unmarked) .
22.43

GET /values?readout=Plate 1-duplicate (% inhibition)&item= `O=c1[nH]c(=O)n([C@H]2C[C@H](O)[C@@H](CO)O2)cc1C(F)(F)F`
-0.91

Could you share which Plate 1-duplicate (% inhibition) value was measured for `COCCn1c2c([n+](Cc3cnccn3)c1C)C(=O)c1ccccc1C2=O` ?
-43.09

====

For each record, write down the corresponding Plate 1 (% conversion).
Target: human AspH (His6-AspH315–758) (Homo sapiens)
Construct: N-Terminally His6-tagged human AspH315–758 (His6-AspH315–758) was produced in Escherichia coli BL21 (DE3) cells; made in house; host or cells: Escherichia coli BL21 (DE3), pET-28a(+) vector
Assay: SPE-MS AspH inhibition assay (hFX-CP101-119 substrate hydroxylation)
Format: biochemical
Details: AspH-inhibitor screening, 384-well Plate 1, substrate conversion
Just so you know, I need the unit written after the number.

Consider the compound `CC(=O)OC[C@H]1O[C@@H]([S-])[C@H](OC(C)=O)[C@@H](OC(C)=O)[C@@H]1OC(C)=O.CCP(CC)CC.[Au+]` and give its measured Plate 1 (% conversion).
21.89%

Look up Plate 1 (% conversion) for this compound: `COc1cc(Nc2c(C#N)cnc3cc(OCCCN4CCN(C)CC4)c(OC)cc23)c(Cl)cc1Cl`
72.16%

What value of Plate 1 (% conversion) has been reported for the following compound? `COc1cc(Nc2ncc(F)c(Nc3ccc4c(n3)NC(=O)C(C)(C)O4)n2)cc(OC)c1OC`
44.65%

Name the reported Plate 1 (% conversion) value associated with the compound `Cn1cc(C[C@@H](N)C(=O)O)c2ccccc21`
46.83%

Look up Plate 1 (% conversion): `COC(=O)c1ccc2c(c1)NC(=O)/C2=C(\Nc1ccc(N(C)C(=O)CN2CCN(C)CC2)cc1)c1ccccc1`
56.00%

Entry COc1cc2c(cc1-c1c(C)noc1C)ncc1[nH]c(=O)n([C@H](C)c3ccccn3)c12 [I-BET151 (GSK1210151A)] : reported Plate 1 (% conversion) = ?
48.01%

Quick check: Plate 1 (% conversion) of `O=C(O)CC[C@H]1CC[C@@](c2cc(F)ccc2F)(S(=O)(=O)c2ccc(Cl)cc2)CC1` ?
44.27%

====

Answer each item with its documented Plate 1 (% conversion).
Target: human AspH (His6-AspH315–758) (Homo sapiens)
Construct: N-Terminally His6-tagged human AspH315–758 (His6-AspH315–758) was produced in Escherichia coli BL21 (DE3) cells; made in house; host or cells: Escherichia coli BL21 (DE3), pET-28a(+) vector
Assay: SPE-MS AspH inhibition assay (hFX-CP101-119 substrate hydroxylation)
Type: biochemical
# output: bare number, implied unit %

Using the record for O=P1(N(CCCl)CCCl)NCCCO1 (centres unmarked) [Clafen (Cyclophosphamide, Endoxan)] , report its Plate 1 (% conversion).
48.48

Entry under review: CCN(CC)CCCC(C)Nc1ccnc2cc(Cl)ccc12 (centres unmarked) [Chloroquine diphosphate] . Reported Plate 1 (% conversion)?
43.64

Entry `Oc1ncc(N(CCCl)CCCl)c(O)n1` has what Plate 1 (% conversion)?
47.47

Reported Plate 1 (% conversion), compound O=[As]O[As]=O (centres unmarked) [Arsenic(III) oxide] : ____
46.14

Any idea what its Plate 1 (% conversion) is? The compound is C[C@]12CC[C@@H]3c4ccc(OC(=O)N(CCCl)CCCl)cc4CC[C@H]3[C@@H]1CC[C@@H]2OP(=O)(O)O [Estramustine sodium phosphate]
17.18

====

Target: His6-AspH315–758 (Homo sapiens)
Construct: A mixture of SYPRO orange (1‰v/v) and His6-AspH315–758 (4 μM) in 50 mM aqueous HEPES buffer; made in house; host or cells: Escherichia coli BL21 (DE3), pET-28a(+) vector
Sequence (Q12797 315-758): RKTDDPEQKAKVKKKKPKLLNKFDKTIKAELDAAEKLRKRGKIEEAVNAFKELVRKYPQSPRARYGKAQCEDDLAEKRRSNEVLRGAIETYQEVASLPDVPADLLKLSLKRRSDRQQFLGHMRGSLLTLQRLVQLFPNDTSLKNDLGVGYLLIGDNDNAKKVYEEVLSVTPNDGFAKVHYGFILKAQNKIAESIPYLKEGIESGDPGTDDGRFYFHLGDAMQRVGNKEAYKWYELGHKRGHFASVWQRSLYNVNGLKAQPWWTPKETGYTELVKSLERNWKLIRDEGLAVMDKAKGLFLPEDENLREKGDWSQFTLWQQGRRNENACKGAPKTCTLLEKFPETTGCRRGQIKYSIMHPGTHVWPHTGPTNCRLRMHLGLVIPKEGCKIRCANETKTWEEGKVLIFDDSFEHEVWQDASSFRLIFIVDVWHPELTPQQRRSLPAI
Experiment: AspH differential scanning fluorimetry (DSF) assay, melting temperature shift
Type: binding
Details: 40 μM inhibitor, 4 μM His6-AspH315–758, with respect to DMSO controls; read-out: Tm-shift (ΔTm) of AspH
Method: A mixture of SYPRO orange (1‰v/v) and His6-AspH315–758 (4 μM) in 50 mM aqueous HEPES buffer (pH 7.5, 150 mM NaCl, 50 μM NiCl2) was carefully pipetted into a 96-well VWR PCR-plate (38 μL per well). […] Data were analyzed using Microsoft Excel and GraphPad Prism according to the literature.[107] […]
Would you mind telling me the reported ΔTm at 40 µM of each entry?
Just the number in °C, nothing appended.

Which ΔTm at 40 µM reading was recorded for the compound O=C(O)c1ccnc(C(=O)O)c1 [2,4-PDCA, Pyridine-2,4-dicarboxylic acid, reference compound] ?
3.2

If you can, please state the reported ΔTm at 40 µM value of CC1(C)CCC(c2ccc(Cl)cc2)=C(CN2CCN(c3ccc(C(=O)NS(=O)(=O)c4ccc(N[C@H](CCN5CCOCC5)CSc5ccccc5)c(S(=O)(=O)C(F)(F)F)c4)cc3)CC2)C1 [Navitoclax, reference compound] .
-2.1

What does the data say about its ΔTm at 40 µM? Entry: O=C(/C=C/c1cccc(S(=O)(=O)Nc2ccccc2)c1)NO [Belinostat, reference compound]
0.1

Quick one: ΔTm at 40 µM for CC1(C)CCC(CN2CCN(c3ccc(C(=O)NS(=O)(=O)c4ccc(NCC5CCOCC5)c([N+](=O)[O-])c4)c(Oc4cnc5[nH]ccc5c4)c3)CC2)=C(c2ccc(Cl)cc2)C1 [Venetoclax, reference compound] ?
0.7

What ΔTm at 40 µM value was documented for this compound, CN(C)CC[C@H](CSc1ccccc1)Nc1ccc(S(=O)(=O)NC(=O)c2ccc(N3CCN(Cc4ccccc4-c4ccc(Cl)cc4)CC3)cc2)cc1[N+](=O)[O-] [ABT-737, reference compound] ?
1.5

====

Molecular target: human AspH (His6-AspH315–758) (Homo sapiens, UniProt Q12797)
Construct: N-Terminally His6-tagged human AspH315–758 (His6-AspH315–758) was produced in Escherichia coli BL21 (DE3) cells; made in house; host or cells: Escherichia coli BL21 (DE3), pET-28a(+) vector
Sequence (Q12797 315-758): as above
Experiment: SPE-MS AspH inhibition assay (hFX-CP101-119 substrate hydroxylation)
Assay type: biochemical
Details: AspH-inhibitor screening, Plate 1-duplicate
VALUE_TYPE: Plate 1-duplicate (% inhibition) (%)
Report only the number, with the unit % understood.

Item `C[C@@H]1CCN(C(=O)CC#N)C[C@@H]1N(C)c1ncnc2[nH]ccc12` has what recorded Plate 1-duplicate (% inhibition)?
6.13

Name the reported Plate 1-duplicate (% inhibition) value associated with the compound CC1(C)NC(=O)N(c2ccc([N+](=O)[O-])c(C(F)(F)F)c2)C1=O [Nilutamide]
4.06

What Plate 1-duplicate (% inhibition) value was documented for this compound, `Cc1cccc(-c2nn3c(c2-c2ccnc4ccc(C(N)=O)cc24)CCC3)n1` ?
4.86

Name the recorded Plate 1-duplicate (% inhibition) for Cn1cncc1[C@@](N)(c1ccc(Cl)cc1)c1ccc2c(c1)c(-c1cccc(Cl)c1)cc(=O)n2C [Tipifarnib (Zarnestra)] .
-61.42
